# Test system: Plasmodium falciparum
# protocol: Primary screen in NF54 nanoGlo assay, in single point, at 2uM, 72h; a lower Z score goes with more inhibition
# Assay type: functional, Erythrocyte
# conditionParameters: timepoint 72 hour
Out of some 150,000 compounds screened, about 540 (0.36%) showed an effect of 50% or more. What follows is part of a selection rich in strong results, with near analogues and random picks from the rest.
Outcome label depends on Z score relative to 1: at/above gives Condition met, below gives Condition not met.

Prompt: Quick check, Z score >= 1? N[C@@H](c1ccc2c(c1)CCO2)c1cc(Cl)ccc1Cl
Completion: Condition not met

Prompt: Quick check, Z score >= 1? COc1ccc(-c2c(-c3ccc(Cl)cc3)[nH]c3c2c(=O)[nH]c(=O)n3C)cc1
Completion: Condition not met

Prompt: Quick check, Z score >= 1? COc1ccc(-c2cc(OC(F)(F)F)ccc2O)nn1
Completion: Condition met

Prompt: Quick check, Z score >= 1? C=CCN1C(=O)OC(C)(CCC=C(C)C)C1(C)O (configuration not stated)
Completion: Condition not met

Prompt: Quick check, Z score >= 1? Cc1c(-c2n[nH]c3c2CN(C(=O)c2csnn2)CC3)cccc1C(F)(F)F
Completion: Condition met

Prompt: Quick check, Z score >= 1? CCCc1nc(NC[C@H]2CC[C@H](CO)CC2)no1
Completion: Condition met

Prompt: Quick check, Z score >= 1? COc1ccc(-c2c(-c3ccc(C)c(C)c3)[nH]c3c2c(=O)[nH]c(=O)n3C)cc1
Completion: Condition not met

Prompt: Quick check, Z score >= 1? O=C(CN1C(=O)CCC1=O)N1CCN(S(=O)(=O)c2ccc(Br)cc2)CC1
Completion: Condition met

Prompt: Quick check, Z score >= 1? Cc1ccc(CNC(=O)CC2CC2)c2cccnc12
Completion: Condition met

Prompt: Quick check, Z score >= 1? COc1ccc(OC)c(CNc2cc[nH]n2)c1
Completion: Condition not met

Prompt: Quick check, Z score >= 1? O=C(c1nnn(-c2ccccc2Cl)c1-c1cccnc1)N1CCN(c2ccccc2)CC1
Completion: Condition not met

Prompt: Quick check, Z score >= 1? COc1cc(CNC2CCCCCC2)ccc1OC[C@@H](O)CN1CCCCCC1
Completion: Condition not met

Prompt: Quick check, Z score >= 1? Cc1ccc(NS(=O)(=O)c2cc(-c3nc(C)c(C)s3)sc2C)c(C)c1
Completion: Condition not met

Prompt: Quick check, Z score >= 1? O=C(c1nnn(-c2ccccc2Cl)c1-c1cccnc1)N1CCC(Cc2ccccc2)CC1
Completion: Condition not met

Prompt: Quick check, Z score >= 1? Cc1ccc(N2S(=O)(=O)c3ccccc3S2(=O)=O)cc1
Completion: Condition not met

Prompt: Quick check, Z score >= 1? CCCN1CCN(C(=O)c2ccnc(N3CCN[C@H](c4ccccc4)C3)c2)CC1
Completion: Condition met

Prompt: Quick check, Z score >= 1? COc1ccccc1N1CCN(C(=O)c2nnn(-c3ccccc3Cl)c2-c2cccnc2)CC1
Completion: Condition not met

Prompt: Quick check, Z score >= 1? CN(C)c1ccc(C(=O)Nc2ccccc2-c2cn3c(n2)CCCC3)nn1
Completion: Condition met

Prompt: Quick check, Z score >= 1? O=C1C[C@@H](C(=O)N2CC(Cc3ccoc3)C2)NC(=O)N1
Completion: Condition met

Prompt: Quick check, Z score >= 1? N[C@H]1C[C@@H](c2cc(N3CCN(C4CCCCC4)CC3)nc(N3CCCC3)n2)C1
Completion: Condition not met

Prompt: Quick check, Z score >= 1? O=C(c1ccccc1Oc1ccccc1)N1CCO[C@]2(CNCCOC2)C1
Completion: Condition not met
